target: NMDAR 1A/2B (Homo sapiens, UniProt Q05586+Q13224)
Sequence (Q13224 27-1484, other chains not shown): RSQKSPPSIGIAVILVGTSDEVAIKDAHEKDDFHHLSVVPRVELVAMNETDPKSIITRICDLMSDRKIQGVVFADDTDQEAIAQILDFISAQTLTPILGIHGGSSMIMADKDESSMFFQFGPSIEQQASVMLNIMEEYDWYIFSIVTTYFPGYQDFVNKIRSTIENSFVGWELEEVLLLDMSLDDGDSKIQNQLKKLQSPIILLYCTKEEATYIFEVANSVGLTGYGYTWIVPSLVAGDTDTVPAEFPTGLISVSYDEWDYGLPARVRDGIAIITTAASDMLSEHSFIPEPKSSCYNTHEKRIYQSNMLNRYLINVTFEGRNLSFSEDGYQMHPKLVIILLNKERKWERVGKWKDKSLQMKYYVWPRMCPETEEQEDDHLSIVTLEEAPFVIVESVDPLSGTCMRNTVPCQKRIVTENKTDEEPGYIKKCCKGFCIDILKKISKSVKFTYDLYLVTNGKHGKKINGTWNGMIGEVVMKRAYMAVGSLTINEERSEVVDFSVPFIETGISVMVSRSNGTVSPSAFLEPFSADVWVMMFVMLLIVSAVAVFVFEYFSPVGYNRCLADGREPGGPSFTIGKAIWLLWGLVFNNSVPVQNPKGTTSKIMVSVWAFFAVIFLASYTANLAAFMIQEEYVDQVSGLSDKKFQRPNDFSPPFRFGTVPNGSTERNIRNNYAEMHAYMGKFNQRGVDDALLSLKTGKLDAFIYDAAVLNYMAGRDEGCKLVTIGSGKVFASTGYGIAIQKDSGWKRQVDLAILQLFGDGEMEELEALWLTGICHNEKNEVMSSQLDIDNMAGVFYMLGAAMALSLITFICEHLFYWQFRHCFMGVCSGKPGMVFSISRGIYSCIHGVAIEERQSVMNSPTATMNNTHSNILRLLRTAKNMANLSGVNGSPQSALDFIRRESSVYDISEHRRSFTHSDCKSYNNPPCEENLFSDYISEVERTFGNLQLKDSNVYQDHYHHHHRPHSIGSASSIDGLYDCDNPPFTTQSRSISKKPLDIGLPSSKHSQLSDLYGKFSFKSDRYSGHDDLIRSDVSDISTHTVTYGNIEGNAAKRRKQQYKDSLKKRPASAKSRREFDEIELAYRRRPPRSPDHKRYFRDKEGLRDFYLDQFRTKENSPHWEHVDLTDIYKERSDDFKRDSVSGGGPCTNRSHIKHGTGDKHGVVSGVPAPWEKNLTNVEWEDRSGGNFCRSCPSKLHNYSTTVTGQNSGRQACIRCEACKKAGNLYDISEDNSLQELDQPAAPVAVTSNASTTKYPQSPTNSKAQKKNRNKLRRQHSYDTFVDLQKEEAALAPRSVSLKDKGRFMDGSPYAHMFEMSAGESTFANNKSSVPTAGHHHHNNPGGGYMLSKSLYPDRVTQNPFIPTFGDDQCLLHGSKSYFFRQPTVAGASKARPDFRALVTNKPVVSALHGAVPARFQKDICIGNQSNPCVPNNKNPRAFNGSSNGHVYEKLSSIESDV
assay-details: NMDAR 1A/2B antagonist (ion channel blocker) assay
Type: cell-based
measurement-context: NMDAR 1A/2B Ion channel blocker, Table 5
quantity: pIC50
Note on pIC50: it is the negative log10 of concentration, concentration in mol/L.

## Input Reported pIC50 for NC1(c2ccccc2Cl)CCCCC1=O (racemic) [NorKetamine, (R,S)-Norketamine] : what is it?
## Output 5.16

----------
target: NMDAR 1A/2B (Homo sapiens, UniProt Q05586+Q13224)
assay-details: NMDAR 1A/2B antagonist (ion channel blocker) assay
Format: cell-based
measurement-context: IC50, NMDAR 1A/2B antagonist assay, FIG. 15A
quantity: pIC50
Note on pIC50: it is the negative log10 of concentration, concentration in mol/L.

## Input Record lookup: for NMDAR 1A/2B (Homo sapiens, UniProt Q05586+Q13224), what pIC50 belongs to NC1(c2ccccc2Cl)CCCCC1=O (racemic) [NorKetamine, (R,S)-Norketamine] ?
## Output 5.16
